Items are presented alongside their recorded cytotoxicity at 10 µM.
Test: Toxicity liver stage against HepG2, at 10uM
Format: cell-based
Parameters: test concentration 10 uM, cell line HepG2-A16-CD81EGFP
Conditions: human, HepG2-A16-CD81EGFP cells; read-out: INHIBITION
Please reply with the bare figure in % and do not write the unit itself.

CCCNC(=O)c1cccc(CNCc2csc(C(C)(C)C)n2)c1	12.3

Given COCCN(Cc1ccoc1)C(=O)c1c(F)cccc1Cl , state its recorded cytotoxicity at 10 µM. -0.11

Given CN(C)S(=O)(=O)CCCN1CCCC1c1noc(C2CC2)n1 (configuration not stated) , state its recorded cytotoxicity at 10 µM. -10.3

Given Nc1cc2c(nn1)CCN(C(=O)CC1CCCCC1)C2 , state its recorded cytotoxicity at 10 µM. -2.78

Given Cc1nc(COc2ccc(CNCCn3cccn3)cc2)cs1 , state its recorded cytotoxicity at 10 µM. -8.96

Given c1cc2c(cc1CN1CCCC3(CCOC3)C1)OCO2 (configuration not stated) , state its recorded cytotoxicity at 10 µM. 0.447

Given CCS(=O)(=O)Nc1ccc2c(c1)OCC(C)(C)C(=O)N2C , state its recorded cytotoxicity at 10 µM. -17.2

Given CCS(=O)(=O)N1CCOC(CCCc2ccccc2)C1 (configuration not stated) , state its recorded cytotoxicity at 10 µM. -9.31

----------
Items are presented alongside their recorded cytotoxicity at 10 µM.
Assay: Toxicity liver stage against HepG2, at 10uM
Format: cell-based
Parameters: test concentration 10 uM, cell line HepG2-A16-CD81EGFP
Conditions: human, HepG2-A16-CD81EGFP cells; read-out: INHIBITION
Please reply with the bare figure in % and do not write the unit itself.

O=C1CN(CCCNS(=O)(=O)c2cccc(C(=O)NC3CC3)c2)CCN1	-3.45

Given COc1ccc(C(C)NCc2scnc2C)cc1Cn1cccn1 (configuration not stated) , state its recorded cytotoxicity at 10 µM. -3.53

Given CCc1c(C)nc2n(c1=O)CC(C(=O)NCc1cccs1)CS2 (configuration not stated) , state its recorded cytotoxicity at 10 µM. 15.2

Given Cc1nc(CN2CCCN(CCOc3ccc(C#N)cc3)CC2)no1 , state its recorded cytotoxicity at 10 µM. -5.93

Given CN(C)C(CNCc1nc(-c2ccsc2)no1)c1ccco1 (configuration not stated) , state its recorded cytotoxicity at 10 µM. 10.2

Given CCN(CC)c1ccc2ccc(C(=O)N(CCOC)CCOC)cn12 , state its recorded cytotoxicity at 10 µM. 1.15

----------
Assay: Toxicity liver stage against HepG2, at 10uM
Type: cell-based
Parameters: test concentration 10 uM, cell line HepG2-A16-CD81EGFP
Conditions: human, HepG2-A16-CD81EGFP cells; read-out: INHIBITION
Items are presented alongside their recorded cytotoxicity at 10 µM.
Please reply with the bare figure in % and do not write the unit itself.

CC(C)CN1CC(C(=O)NCCOc2ccc3c(c2)OCO3)CC1=O (centres undefined)	-1.39
CCOC1(C)C(=O)c2ccccc2N1Nc1ccccc1C(=O)CC (centres undefined)	12.9
c1cnc(N2CCC3(CCN(CC4CC4)CC3)CC2)nc1	0.77
Cn1cnc2c(N3CCCC3)nc(C3CCN(CC4CC4)CC3)cc21	-5.26
CN1C[C@@H](NC(=O)CC(C)(C)C)C[C@H]1c1nc(-c2cnccn2)no1	3.08

Given COc1cc(C)nc(N2CCN(C(=O)c3ccoc3C)CC2)n1 , state its recorded cytotoxicity at 10 µM. -21.8

Given CC(C)=CCN1CCOC(Cn2nc(C)cc2C)C1 (centres undefined) , state its recorded cytotoxicity at 10 µM. -9.93

Given CCc1cc(N2CCC(NCCc3nc(C)c(C)s3)CC2)nc(C)n1 , state its recorded cytotoxicity at 10 µM. 0.902

Given CCC(NC(=O)Cn1ccc(=O)n(C)c1=O)c1ccccc1OC (centres undefined) , state its recorded cytotoxicity at 10 µM. 7.23

Given CN(Cc1ccco1)Cc1cnc2n1CCN(S(C)(=O)=O)CC2 , state its recorded cytotoxicity at 10 µM. -2.75

Given CCc1ncncc1C(=O)N1CCCN(Cc2ccc(C#N)cc2)CC1 , state its recorded cytotoxicity at 10 µM. -2.91

Given O=C(CCc1ccccc1Br)NCC(=O)NCc1ccccc1 , state its recorded cytotoxicity at 10 µM. 0.988
